Experiment: Maximal electroshock (MES)-induced convulsions in mice
Format: in vivo
Conditions: Mus musculus, ip, 0.5 h, read-out: MES ED50
# if measured ED50 < 8 mg/kg: true  # else: false

{"columns": ["COMPOUND", "CAT"],
 "data": [
  ["CC1(C)CCCC(C)(N)C1 (centres unmarked) [Mrz 2/621]", "false"]
]}

Input: Could you please tell me whether ED50 recorded for C[C@]12N[C@H](Cc3ccccc31)c1ccccc12 [MK-801, reference compound] is less than 8 mg/kg?
Output: true

Input: Here's an entry: NC12CC3CC(CC(C3)C1)C2 [Amantadine, reference compound] . Is its ED50 below 8 mg/kg?
Output: false

Input: Consider CCCC1(N)CC(C)(C)CC(C)(C)C1 [Mrz 2/601] . Does its ED50 lie strictly below 8 mg/kg?
Output: false
